Origin of the recorded values: ChEMBL document CHEMBL1132104

Assay: Inhibitory activity against IMP-1 metallo-beta-lactamase (MBL)
EXPERIMENTAL_READOUT: IC50 (µM)

- COMPOUND_STRUCTURE_STRING: "C[C@@H](NC(=O)CCC(=O)c1ccccc1)C(=O)S[C@H](Cc1ccc(-c2ccccc2)cc1)C(=O)O"
  UNIT_TEXT: "µM"
  VALUE_OBSERVED: 0.25
- COMPOUND_STRUCTURE_STRING: "C[C@@H](NC(=O)c1ccccc1)C(=O)S[C@@H](Cc1ccc2oc3ccccc3c2c1)C(=O)O"
  UNIT_TEXT: "µM"
  VALUE_OBSERVED: 430
- COMPOUND_STRUCTURE_STRING: "C[C@@H](NC(=O)c1ccccc1)C(=O)SCC(=O)O"
  UNIT_TEXT: "µM"
  VALUE_OBSERVED: 240
- COMPOUND_STRUCTURE_STRING: "C[C@@H](NC(=O)CSCC(=O)O)C(=O)S[C@H](Cc1ccc(-c2ccccc2)cc1)C(=O)O"
  UNIT_TEXT: "µM"
  VALUE_OBSERVED: 13
- COMPOUND_STRUCTURE_STRING: "C=CCOC(=O)N[C@H](C)C(=O)S[C@H](Cc1ccc(-c2ccccc2)cc1)C(=O)O"
  UNIT_TEXT: "µM"
  VALUE_OBSERVED: 4.4
- COMPOUND_STRUCTURE_STRING: "CCCCCC(=O)N[C@H](C)C(=O)S[C@H](Cc1ccc(-c2ccccc2)cc1)C(=O)O"
  UNIT_TEXT: "µM"
  VALUE_OBSERVED: 13

(a) C[C@@H](NC(=O)c1cccc(N(C)C)c1)C(=O)S[C@H](Cc1ccc(-c2ccccc2)cc1)C(=O)O
(b) CC(C)CC(=O)N[C@H](C)C(=O)S[C@H](Cc1ccc(-c2ccccc2)cc1)C(=O)O
(c) O=C(O)[C@@H](S)Cc1ccccc1
(d) COc1ccc(C(=O)N[C@H](C)C(=O)S[C@H](Cc2ccc(-c3ccccc3)cc2)C(=O)O)cc1
(e) C[C@@H](NC(=O)c1ccccc1)C(=O)S[C@H](Cc1ccc2oc3ccccc3c2c1)C(=O)O
Incoming: I would appreciate it if you could sort these 5 compounds by IC50, starting from the smallest number. Put the labels in the requested order and list them out.
Outgoing: e, c, b, a, d
(e: 1.5 µM, c: 3.7 µM, b: 5.3 µM, a: 15 µM, d: 29 µM)

(a) C[C@@H](NC(=O)Cc1cccnc1)C(=O)S[C@H](Cc1ccc(-c2ccccc2)cc1)C(=O)O
(b) C=CCOC(=O)N[C@H](C)C(=O)S[C@H](Cc1ccc2oc3ccccc3c2c1)C(=O)O
(c) O=C(S[C@H](Cc1ccccc1)C(=O)O)c1ccccc1
(d) CC(=O)S[C@@H](Cc1ccc2oc3ccccc3c2c1)C(=O)O
(e) C[C@@H](NC(=O)c1ccc2ccccc2c1)C(=O)S[C@H](Cc1ccc(-c2ccccc2)cc1)C(=O)O
Incoming: Please rank these compounds by IC50 in descending order. Sort the labels as requested; that list is your answer.
Outgoing: d, a, e, b, c
